# System: soluble epoxide hydrolase (sEH)
# protocol summary: Fluorescent Assay for Mouse and Human Soluble Epoxide Hydrolase (CMNPC substrate)
# Format: biochemical
# run parameters: Concentration 500 nM
measured metric: % Inhibition (%)

INSERT INTO results (molecule, measured_metric, unit_symbol, obs_value) VALUES
  ('COC(=O)CCCCCCCCCCCNC(=O)C(O)CC12CC3CC(CC(C3)C1)C2 (centres unmarked)', '% Inhibition', '%', 81),
  ('COC(=O)CCCCCCCCCCCNC(=O)C(O)c1ccc(C(F)(F)F)cc1 (centres unmarked)', '% Inhibition', '%', 72),
  ('O=C(NCC12CC3CC(CC(C3)C1)C2)C(O)Cc1ccc(OCc2ccccc2)cc1 (centres unmarked)', '% Inhibition', '%', 82),
  ('O=C(Nc1cccc(OCc2ccccc2)c1)C(O)C12CC3CC(CC(C3)C1)C2 (centres unmarked)', '% Inhibition', '%', 79),
  ('Cc1ccc(S(=O)(=O)N2CCC(NC(=O)C(O)C34CC5CC(CC(C5)C3)C4)CC2)cc1 (centres unmarked)', '% Inhibition', '%', 80);

---

# Test system: soluble epoxide hydrolase (sEH)
# protocol summary: Fluorescent Assay for Mouse and Human Soluble Epoxide Hydrolase (CMNPC substrate)
# Assay type: biochemical
# run parameters: Concentration 5000 nM
measured metric: % Inhibition (%)

INSERT INTO measurements (compound, assayed_system, unit_symbol, obs_value) VALUES
  ('O=C(Nc1cccc(OCc2ccccc2)c1)C(O)c1ccc(C(F)(F)F)cc1 (stereo not shown)', 'soluble epoxide hydrolase (sEH)', '%', 99),
  ('COc1ccc(C(=O)C(=O)NCC23CC4CC(CC(C4)C2)C3)cc1', 'soluble epoxide hydrolase (sEH)', '%', 78),
  ('O=C(NC1CCN(S(=O)(=O)c2ccc(Cl)cc2)CC1)C(O)CCC12CC3CC(CC(C3)C1)C2 (stereo not shown)', 'soluble epoxide hydrolase (sEH)', '%', 98),
  ('O=C(Cc1ccc(OCc2ccccc2)cc1)C(=O)NCC12CC3CC(CC(C3)C1)C2', 'soluble epoxide hydrolase (sEH)', '%', 71),
  ('O=C(O)CCCCCCCCCCCNC(=O)C(O)CCc1ccc(C(F)(F)F)cc1 (stereo not shown)', 'soluble epoxide hydrolase (sEH)', '%', 89),
  ('O=C(NC1CCN(S(=O)(=O)c2cccc(C(F)(F)F)c2)CC1)C(O)C12CC3CC(CC(C3)C1)C2 (stereo not shown)', 'soluble epoxide hydrolase (sEH)', '%', 98),
  ('O=C(NCCc1ccc(OCc2ccccc2)cc1)C(O)C12CC3CC(CC(C3)C1)C2 (stereo not shown)', 'soluble epoxide hydrolase (sEH)', '%', 87),
  ('Cc1ccc(S(=O)(=O)N2CCC(NC(=O)C(O)C3CCCCC3)CC2)cc1 (stereo not shown)', 'soluble epoxide hydrolase (sEH)', '%', 82),
  ('O=C(NCc1ccc(OCc2ccccc2)cc1)C(O)C12CC3CC(CC(C3)C1)C2 (stereo not shown)', 'soluble epoxide hydrolase (sEH)', '%', 83),
  ('O=C(CC12CC3CC(CC(C3)C1)C2)C(=O)NCCc1ccc(OCc2ccccc2)cc1', 'soluble epoxide hydrolase (sEH)', '%', 87);
